B1: glmS ribozyme (parent)
chain: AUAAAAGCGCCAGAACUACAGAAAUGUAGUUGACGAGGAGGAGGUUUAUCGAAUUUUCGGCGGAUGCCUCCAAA

# Variants of: B1
# assay.method.text: self-cleavage kobs at 40 uM GlcN6P; higher = faster cleavage; RNA array
# measurement.context: with glucosamine-6-phosphate
This sample holds only a part of the variants without activity.
Catalogue of self-cleavage kobs at 40 uM GlcN6P readings, one per entry.
parameter: self-cleavage kobs at 40 uM GlcN6P

variant.designation: U31A G59C
parameter: self-cleavage kobs at 40 uM GlcN6P
experimental.value: < 1e-05 s⁻¹
//
variant.designation: A36U G38C A53C
parameter: self-cleavage kobs at 40 uM GlcN6P
experimental.value: < 1e-05 s⁻¹
//
variant.designation: U31G A53U C58G G60A
parameter: self-cleavage kobs at 40 uM GlcN6P
experimental.value: < 1e-05 s⁻¹
//
variant.designation: G40C G41A C70U
parameter: self-cleavage kobs at 40 uM GlcN6P
experimental.value: 8.35e-05 s⁻¹
//
variant.designation: G43A G51A
parameter: self-cleavage kobs at 40 uM GlcN6P
experimental.value: < 1e-05 s⁻¹
//
variant.designation: G29A G66A
parameter: self-cleavage kobs at 40 uM GlcN6P
experimental.value: 7.16e-05 s⁻¹
//
variant.designation: U31G G59A
parameter: self-cleavage kobs at 40 uM GlcN6P
experimental.value: < 1e-05 s⁻¹
//
variant.designation: A42U G51U
parameter: self-cleavage kobs at 40 uM GlcN6P
experimental.value: < 1e-05 s⁻¹
